Subject Of Test: human Nav1.5 (Homo sapiens (Human))
Sequence (Q14524 whole entry): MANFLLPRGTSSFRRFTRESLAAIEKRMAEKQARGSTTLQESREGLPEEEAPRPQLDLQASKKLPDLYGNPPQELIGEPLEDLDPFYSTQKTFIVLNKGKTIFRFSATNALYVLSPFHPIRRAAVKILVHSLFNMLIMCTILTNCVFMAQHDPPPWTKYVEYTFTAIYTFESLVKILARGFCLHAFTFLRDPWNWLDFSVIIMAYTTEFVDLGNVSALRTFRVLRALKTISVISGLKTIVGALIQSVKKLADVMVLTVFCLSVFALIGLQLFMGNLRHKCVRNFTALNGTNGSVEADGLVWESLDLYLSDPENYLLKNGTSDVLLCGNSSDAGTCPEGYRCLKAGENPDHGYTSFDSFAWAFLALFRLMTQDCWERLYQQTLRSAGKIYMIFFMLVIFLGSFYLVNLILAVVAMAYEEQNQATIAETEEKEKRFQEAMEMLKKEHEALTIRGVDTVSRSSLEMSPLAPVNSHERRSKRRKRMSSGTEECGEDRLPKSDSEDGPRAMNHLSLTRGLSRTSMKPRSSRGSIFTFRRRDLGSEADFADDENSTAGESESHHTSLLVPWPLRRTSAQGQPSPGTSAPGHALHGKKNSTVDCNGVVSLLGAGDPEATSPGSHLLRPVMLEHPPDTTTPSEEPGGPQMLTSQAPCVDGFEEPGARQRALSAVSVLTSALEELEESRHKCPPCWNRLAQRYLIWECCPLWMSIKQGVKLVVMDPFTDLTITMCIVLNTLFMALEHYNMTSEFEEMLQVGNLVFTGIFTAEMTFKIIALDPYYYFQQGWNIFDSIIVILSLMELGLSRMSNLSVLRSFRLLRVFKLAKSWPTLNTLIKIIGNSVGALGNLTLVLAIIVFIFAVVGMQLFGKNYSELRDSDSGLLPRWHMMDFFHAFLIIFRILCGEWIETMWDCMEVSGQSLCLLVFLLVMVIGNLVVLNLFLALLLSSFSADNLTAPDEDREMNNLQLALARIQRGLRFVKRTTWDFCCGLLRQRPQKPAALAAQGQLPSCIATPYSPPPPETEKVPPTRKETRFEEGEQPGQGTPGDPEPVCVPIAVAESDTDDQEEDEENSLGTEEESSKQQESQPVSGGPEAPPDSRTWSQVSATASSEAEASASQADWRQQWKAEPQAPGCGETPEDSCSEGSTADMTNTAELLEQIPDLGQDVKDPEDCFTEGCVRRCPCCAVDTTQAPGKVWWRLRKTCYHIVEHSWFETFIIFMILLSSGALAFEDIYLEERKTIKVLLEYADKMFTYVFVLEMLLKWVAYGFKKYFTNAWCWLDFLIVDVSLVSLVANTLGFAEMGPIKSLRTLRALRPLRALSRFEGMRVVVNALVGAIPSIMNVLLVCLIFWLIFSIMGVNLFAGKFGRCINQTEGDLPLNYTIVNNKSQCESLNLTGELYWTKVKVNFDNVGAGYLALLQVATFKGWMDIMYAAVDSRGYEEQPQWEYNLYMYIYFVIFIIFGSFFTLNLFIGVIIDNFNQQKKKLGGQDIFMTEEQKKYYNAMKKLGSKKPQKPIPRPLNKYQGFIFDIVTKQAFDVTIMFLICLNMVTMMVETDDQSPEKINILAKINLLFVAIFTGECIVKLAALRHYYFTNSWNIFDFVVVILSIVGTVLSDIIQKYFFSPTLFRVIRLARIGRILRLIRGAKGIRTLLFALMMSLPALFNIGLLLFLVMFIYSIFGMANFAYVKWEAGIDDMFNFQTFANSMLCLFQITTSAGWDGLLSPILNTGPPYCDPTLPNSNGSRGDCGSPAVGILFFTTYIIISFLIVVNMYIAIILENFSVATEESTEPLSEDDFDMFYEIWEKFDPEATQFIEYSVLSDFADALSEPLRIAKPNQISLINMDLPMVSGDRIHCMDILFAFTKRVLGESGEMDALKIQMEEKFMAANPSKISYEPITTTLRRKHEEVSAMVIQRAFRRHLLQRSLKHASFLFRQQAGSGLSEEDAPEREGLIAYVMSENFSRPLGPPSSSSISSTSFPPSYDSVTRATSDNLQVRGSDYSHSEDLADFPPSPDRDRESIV
Test Details: Human Nav1.5 inhibitory activity evaluation (automated patch clamp QPatch16X, HEK293 cells stably expressing human Nav1.5)
Type: cell-based
Measurement Conditions: human Nav1.5, automated patch clamp
Description: Test Example 2: Human Nav1.5 Inhibitory Activity Evaluation A cell line in which human Nav1.5 was stably expressed in HEK293 cells was used. […] The amount of current through human Nav1.5 was recorded using a fully automatic patch clamp device QPatch16X at room temperature. […]
pIC50: −log10 of the molar value.
Endpoint: pIC50

Worked examples, 2 compounds total:
>>> assay_result("O=C(N[C@H]1COc2ccc(Cl)cc2C1)c1cc2n(n1)CC(CCNCC(F)(F)F)O2 (single isomer, unassigned) [226 (isomer B)]")
"5.52 to 6.00"
>>> assay_result("N#CC1(COCC2CCn3nc(C(=O)N[C@H]4COc5ccc(Cl)cc5C4)cc3O2)CC1 (single isomer, unassigned) [563 (isomer B)]")
"≤ 5.52"

Incoming: Under human Nav1.5 (Homo sapiens (Human)): pIC50 value of O=C(N[C@H]1COc2ccc(COCC(F)(F)F)cc2C1)c1cc2n(n1)CC(CCOCC(F)F)O2 (single isomer, unassigned) [224 (isomer B)] ?
Outgoing: 5.52 to 6.00

----------
Subject Of Test: human Nav1.7 (Homo sapiens (Human))
Test Details: Human Nav1.7 inhibitory activity evaluation (automated patch clamp QPatch16X, HEK293A cells stably expressing human Nav1.7 and human Navβ1)
Assay type: cell-based
Measurement Conditions: human Nav1.7, automated patch clamp
pIC50: −log10 of the molar value.
Would you kindly list pIC50 for each of these compounds?

Worked examples, 3 compounds total:
>>> assay_result("O=C(N[C@H]1COc2ccc(C(F)(F)F)cc2C1O)c1cc2n(n1)CC(CCCOCC(F)F)O2 (single isomer, unassigned) [610 (isomer B)]")
"> 5.00"
>>> assay_result("O=C(N[C@H]1COc2ccc(CC(F)F)cc2C1)c1cc2n(n1)CC(CCOC(F)F)O2 (stereo partly shown) [Example 218]")
"> 6.00"
>>> assay_result("O=C(N[C@H]1COc2ccc(COCC(F)(F)F)cc2C1)c1cc2n(n1)CC(C(F)(F)F)O2 (single isomer, unassigned) [184 (isomer A)]")
"> 6.00"

# batch: return pIC50 for each of the 4 compounds below
1. O=C(N[C@H]1COc2ccc(C(F)(F)F)cc2C1)c1cc2n(n1)CC(CCN1CCC(F)(F)CC1)O2 (single isomer, unassigned) [242 (isomer A)]
2. O=C(N[C@H]1COc2ccc(Cl)cc2C1)c1cc2n(n1)CCC(COCC(F)(F)F)O2 (stereo partly shown)
3. O=C(N[C@H]1COc2ccc(Cl)cc2C1)c1nn2c(c1-c1ccccc1)CN(CC(F)(F)F)CC2
4. N#Cc1ccc2c(c1)C[C@@H](NC(=O)c1cc3n(n1)CCC(C#Cc1ccccc1)O3)CO2 (stereo partly shown)

Outgoing:
> 6.00
> 6.00
> 5.00
> 5.00

----------
Subject Of Test: human Nav1.7 (Homo sapiens (Human), UniProt Q15858)
Sequence (Q15858 whole entry): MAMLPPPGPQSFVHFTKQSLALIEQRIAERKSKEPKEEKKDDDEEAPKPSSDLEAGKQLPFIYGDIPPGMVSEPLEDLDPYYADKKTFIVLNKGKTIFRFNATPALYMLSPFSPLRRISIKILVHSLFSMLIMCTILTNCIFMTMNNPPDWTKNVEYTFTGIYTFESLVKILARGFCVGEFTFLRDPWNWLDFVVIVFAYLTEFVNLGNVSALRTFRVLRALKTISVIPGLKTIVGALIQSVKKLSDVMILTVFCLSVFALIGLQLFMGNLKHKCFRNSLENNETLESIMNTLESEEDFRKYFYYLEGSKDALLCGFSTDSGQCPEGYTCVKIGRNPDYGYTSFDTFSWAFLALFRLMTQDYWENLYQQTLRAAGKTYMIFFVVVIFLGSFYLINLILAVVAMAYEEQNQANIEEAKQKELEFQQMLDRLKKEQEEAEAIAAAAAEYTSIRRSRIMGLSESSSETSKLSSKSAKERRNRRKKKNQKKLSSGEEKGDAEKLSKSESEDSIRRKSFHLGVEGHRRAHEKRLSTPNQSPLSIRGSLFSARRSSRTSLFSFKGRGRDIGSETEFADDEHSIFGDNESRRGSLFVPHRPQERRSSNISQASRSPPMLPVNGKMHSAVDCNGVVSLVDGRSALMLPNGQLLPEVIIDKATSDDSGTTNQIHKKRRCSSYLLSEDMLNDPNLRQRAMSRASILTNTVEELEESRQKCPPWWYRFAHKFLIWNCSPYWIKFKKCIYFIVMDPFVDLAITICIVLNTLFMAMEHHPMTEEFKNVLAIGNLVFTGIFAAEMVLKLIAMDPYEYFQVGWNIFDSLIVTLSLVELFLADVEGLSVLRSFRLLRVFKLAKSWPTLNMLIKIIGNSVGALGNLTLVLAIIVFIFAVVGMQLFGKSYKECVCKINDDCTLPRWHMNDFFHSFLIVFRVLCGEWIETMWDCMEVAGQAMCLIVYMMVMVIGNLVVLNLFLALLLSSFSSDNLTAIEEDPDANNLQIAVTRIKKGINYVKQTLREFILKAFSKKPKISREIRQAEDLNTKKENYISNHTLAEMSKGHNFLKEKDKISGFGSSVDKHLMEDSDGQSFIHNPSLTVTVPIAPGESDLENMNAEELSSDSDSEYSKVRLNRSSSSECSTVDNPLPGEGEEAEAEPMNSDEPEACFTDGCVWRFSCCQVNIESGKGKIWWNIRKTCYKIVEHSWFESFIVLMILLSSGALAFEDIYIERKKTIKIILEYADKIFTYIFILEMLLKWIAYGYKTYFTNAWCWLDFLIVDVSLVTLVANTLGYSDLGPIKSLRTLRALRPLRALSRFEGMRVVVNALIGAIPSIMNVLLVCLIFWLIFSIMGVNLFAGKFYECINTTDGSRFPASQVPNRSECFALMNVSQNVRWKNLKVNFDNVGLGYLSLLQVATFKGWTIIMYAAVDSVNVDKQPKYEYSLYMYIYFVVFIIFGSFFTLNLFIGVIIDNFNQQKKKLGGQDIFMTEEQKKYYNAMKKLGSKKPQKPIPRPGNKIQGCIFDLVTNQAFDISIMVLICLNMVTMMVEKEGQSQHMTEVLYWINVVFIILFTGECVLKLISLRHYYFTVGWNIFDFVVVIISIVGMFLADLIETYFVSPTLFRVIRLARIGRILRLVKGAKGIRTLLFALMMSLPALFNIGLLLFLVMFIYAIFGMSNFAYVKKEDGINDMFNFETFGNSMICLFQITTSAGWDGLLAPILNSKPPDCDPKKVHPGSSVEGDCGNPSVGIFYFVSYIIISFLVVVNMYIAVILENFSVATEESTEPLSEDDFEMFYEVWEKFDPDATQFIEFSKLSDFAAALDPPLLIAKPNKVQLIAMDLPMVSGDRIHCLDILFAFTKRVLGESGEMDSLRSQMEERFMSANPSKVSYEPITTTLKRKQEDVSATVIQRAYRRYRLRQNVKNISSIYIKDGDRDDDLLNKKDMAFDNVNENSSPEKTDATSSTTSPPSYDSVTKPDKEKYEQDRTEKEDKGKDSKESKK
Sequence (Q07699 19-218 partner): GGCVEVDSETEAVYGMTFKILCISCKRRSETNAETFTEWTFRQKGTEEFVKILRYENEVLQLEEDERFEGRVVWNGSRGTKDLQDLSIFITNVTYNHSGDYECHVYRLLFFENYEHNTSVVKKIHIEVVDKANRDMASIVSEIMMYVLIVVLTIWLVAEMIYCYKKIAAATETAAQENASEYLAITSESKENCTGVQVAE
Test Details: Human Nav1.7 inhibitory activity evaluation (automated patch clamp QPatch16X, HEK293A cells stably expressing human Nav1.7 and human Navβ1)
Format: cell-based
Measurement Conditions: human Nav1.7, automated patch clamp
Would you kindly list IC50 for each of these molecules?

Worked examples, 3 molecules total:
>>> assay_result("O=C(N[C@H]1COc2ccc(COCC(F)(F)F)cc2C1)c1cc2n(n1)CCC(COCC(F)(F)F)CO2 (single isomer, unassigned) [602 (isomer A)]")
"< 1 µM"
>>> assay_result("COc1cccc2c1CC(NC(=O)c1cc3n(n1)CCC(c1ccccc1)O3)CO2 (stereo not drawn)")
"< 1 µM"
>>> assay_result("CC1CCn2nc(C(=O)N[C@H]3COc4ccc(Cl)cc4C3)c(-c3ccccc3)c2O1 (stereo partly drawn)")
"< 1 µM"

# batch: return IC50 for each of the 3 molecules below
1. O=C(N[C@H]1COc2ccc(CCOC(F)F)cc2C1)c1cc2n(n1)CCC(COC(F)F)O2 (single isomer, unassigned) [142 (isomer B)]
2. Cn1ccc(-c2ccc3c(c2)C[C@@H](NC(=O)c2cc4n(n2)CC(CCOCC(F)(F)F)O4)CO3)n1 (single isomer, unassigned) [206 (isomer A)]
3. O=C(N[C@H]1COc2ccc(-c3cnccn3)cc2C1)c1cc2n(n1)CC(CCOC(F)F)O2 (single isomer, unassigned) [223 (isomer A)]

Outgoing:
1. < 1 µM
2. < 1 µM
3. < 10 µM

----------
Subject Of Test: UniProt:Q15858
Test Details: Human Nav1.7 inhibitory activity evaluation (automated patch clamp QPatch16X, HEK293A cells stably expressing human Nav1.7 and human Navβ1)
Format: cell-based
Measurement Conditions: HEK293A cells stably expressing human Nav1.7 and human Navβ1, automated patch clamp QPatch16X
pIC50: −log10 of the molar value.
Endpoint: pIC50

Worked examples, 6 compounds total:
>>> assay_result("COc1cc(C2CCn3nc(C(=O)N[C@H]4COc5ccc(C#N)cc5C4)cc3O2)ccn1 (stereo partly shown) [Example 73]")
"> 5.00"
>>> assay_result("N#Cc1ccc(-c2ccc3c(c2)C[C@@H](NC(=O)c2cc4n(n2)CCC(COCC2CC2)O4)CO3)cn1 (stereo partly shown)")
"> 5.00"
>>> assay_result("O=C(N[C@H]1COc2ccc(CC(F)F)cc2C1)c1cc2n(n1)CCC(COCC(F)(F)F)O2 (stereo partly shown) [Example 126]")
"> 6.00"
>>> assay_result("N#Cc1ccc2c(c1)C[C@@H](NC(=O)c1cc3n(n1)CCC(CSc1ccccc1)O3)CO2 (stereo partly shown)")
"> 6.00"
>>> assay_result("O=C(NC1COc2cccc(Cl)c2C1)c1cc2n(n1)CCC(c1ccccc1)O2 (stereo not shown)")
"> 6.00"
>>> assay_result("O=C(N[C@H]1COc2ccc(Cl)cc2C1)c1cn2c(n1)CCC(C(F)(F)F)C2 (single isomer, unassigned) [Example 2 (isomer B)]")
"> 6.00"

Here's the next entry for you.
Incoming: Can you look up the measured pIC50 of O=C(N[C@H]1COc2ccc(CC(F)F)cc2C1)c1cc2n(n1)CCC(COC(F)F)O2 (single isomer, unassigned) [138 (isomer B)] for me?
Outgoing: > 5.00

----------
Subject Of Test: human Nav1.5 (Homo sapiens (Human))
Test Details: Human Nav1.5 inhibitory activity evaluation (automated patch clamp QPatch16X, HEK293 cells stably expressing human Nav1.5)
Assay type: cell-based
Measurement Conditions: human Nav1.5, automated patch clamp
Would you kindly list IC50 for each of these compounds?

>>> assay_result("O=C(N[C@H]1COc2ccc(C(F)(F)F)cc2C1)c1cc2n(n1)CCC(C(F)F)O2 (mixture of isomers) [Example 160]")
"≥ 3000 nM"
>>> assay_result("O=C(N[C@H]1COc2ccc(Cl)cc2C1)c1cc2n(n1)CCC(C(F)F)O2 (stereo partly drawn) [Example 157]")
"≥ 3000 nM"
>>> assay_result("O=C(N[C@H]1COc2ccc(-c3cnccn3)cc2C1)c1cc2n(n1)CC(CCOC(F)F)O2 (single isomer, unassigned) [223 (isomer B)]")
"1000 to 3000 nM"
>>> assay_result("COc1ncc(-c2ccc3c(c2)C[C@@H](NC(=O)c2cc4n(n2)CC(CCOCC2CC2)O4)CO3)cn1 (mixture of isomers) [Example 203]")
"≥ 3000 nM"
>>> assay_result("O=C(N[C@H]1COc2ccc(Cl)cc2C1)c1cc2n(n1)CC(CCn1cccn1)O2 (stereo partly drawn)")
"1000 to 3000 nM"

# batch: return IC50 for each of the 5 compounds below
1. O=C(N[C@H]1COc2ccc(COCC(F)(F)F)cc2C1)c1cc2n(n1)CCC(COC(F)F)O2 (single isomer, unassigned) [140 (isomer A)]
2. O=C(N[C@H]1COc2ccc(CC(F)F)cc2C1)c1cc2n(n1)CCC(CCOC(F)F)O2 (single isomer, unassigned) [148 (isomer B)]
3. N#Cc1ccc2c(c1)C[C@@H](NC(=O)c1cc3n(n1)CC(CCSCC(F)(F)F)O3)CO2 (single isomer, unassigned) [244 (isomer B)]
4. CC(C)(C)N1CCn2nc(C(=O)N[C@H]3COc4ccc(Cl)cc4C3)cc2C1
5. O=C(N[C@H]1COc2ccc(-c3cncs3)cc2C1)c1cc2n(n1)CCC(COCC1CC1)O2 (stereo partly drawn)

Outgoing:
1. ≥ 3000 nM
2. ≥ 3000 nM
3. < 1000 nM
4. ≥ 3000 nM
5. ≥ 3000 nM

# batch: return IC50 for each of the 2 compounds below
1. O=C(N[C@H]1COc2ccc(Cl)cc2C1)c1cc2n(n1)CC(CCN1CC(F)(F)C1)O2 (single isomer, unassigned) [234 (isomer A)]
2. N#Cc1ccc2c(c1)C[C@@H](NC(=O)c1cc3n(n1)CC(C(F)(F)COCC1CC1)O3)CO2 (stereo partly drawn)

Outgoing:
1. ≥ 3000 nM
2. ≥ 3000 nM

# batch: return IC50 for each of the 5 compounds below
1. N#Cc1ccc2c(c1)C[C@@H](NC(=O)c1cc3n(n1)CCC(CCOC(F)F)O3)CO2 (single isomer, unassigned) [146 (isomer B)]
2. O=C(N[C@H]1COc2ccc(C(F)(F)F)cc2C1O)c1cc2n(n1)CC(CCCOCC(F)F)O2 (single isomer, unassigned) [610 (isomer A)]
3. O=C(N[C@H]1COc2ccc(COCC(F)(F)F)cc2C1)c1cc2n(n1)CCC(C(F)F)O2 (stereo partly drawn) [Example 162]
4. CN1Cc2nc(C(=O)NCC(F)(F)c3cccc(C(F)(F)F)c3)cn2CC1c1ccccc1 (stereo not drawn)
5. O=C(N[C@H]1COc2ccc(CCOC(F)F)cc2C1)c1cc2n(n1)CC(CCOC(F)F)O2 (single isomer, unassigned) [217 (isomer A)]

Outgoing:
≥ 3000 nM
≥ 3000 nM
≥ 3000 nM
1000 to 3000 nM
1000 to 3000 nM

# batch: return IC50 for each of the 4 compounds below
1. N#Cc1ccc2c(c1)C[C@@H](NC(=O)c1cc3n(n1)CCC(c1c(F)cccc1F)O3)CO2 (stereo partly drawn)
2. CN1Cc2nc(C(=O)NCCc3cccc(OCC(F)(F)F)c3)cn2CC1c1ccc(C(F)(F)F)cc1 (stereo not drawn)
3. O=C(NC1COc2cccc(F)c2C1)c1cc2n(n1)CCC(c1ccccc1)O2 (stereo not drawn)
4. N#Cc1ccc2c(c1)C[C@@H](NC(=O)c1cc3n(n1)CCC(CCOC(F)(F)F)O3)CO2 (stereo partly drawn) [Example 143]

Outgoing:
1: 1000 to 3000 nM; 2: ≥ 3000 nM; 3: ≥ 3000 nM; 4: ≥ 3000 nM
